- Test system: L1210 leukemia ip in BDF1 mice, survival T/C
- assay.procedure: NCI In Vivo Anticancer Drug Screen. Data for tumor model L1210 Leukemia (intraperitoneal) in B6D2F1 (BDF1) mice
- measurement.setup: endpoint: mean survival time; dose: 25.0 mg/kg/injection; schedule: Q04DX003 (ip); vehicle: saline with Tween-80; higher = longer survival
Inconclusive results and toxic doses are left out.
quantity.name: T/C

{"compound": "CN(Cc1ccccc1)c1ccc2nc(N)nc(N)c2c1", "data.value": "105 % of control"}
{"compound": "CC(C)(C)CC(C)(C)NCc1ccccc1", "data.value": "103 % of control"}
{"compound": "c1ccc2c(c1)[nH]c1ccncc12", "data.value": "101 % of control"}

I would be grateful if you could share the reported T/C for NC(=O)N/N=C/c1cccs1 .
95 % of control

What do we get for CC(O)C[As](=O)(O)c1ccc(Cl)cc1 (stereo unspecified) ?
94 % of control

Same thing, different compound: CCOC(=O)c1c[nH]c2cc([N+](=O)[O-])ccc2c1=O
91 % of control

---

- Test system: L1210 leukemia ip in BDF1 mice, survival T/C
- assay.procedure: NCI In Vivo Anticancer Drug Screen. Data for tumor model L1210 Leukemia (intraperitoneal) in B6D2F1 (BDF1) mice
- measurement.setup: endpoint: mean survival time; dose: 6.25 mg/kg/injection; schedule: Q01DX009 (ip); vehicle: saline; higher = longer survival
Inconclusive results and toxic doses are left out.
quantity.name: T/C

{"compound": "CCc1ccc(/C=C/c2ccc(O)c3ncccc23)[n+](C)c1", "target.of.assay": "L1210 leukemia ip in BDF1 mice, survival T/C", "T/C": "108 % of control"}

Under L1210 leukemia ip in BDF1 mice, survival T/C: T/C value of N=C(N)SCc1ccccc1Cl ?
98 % of control

Similarly, CC(CC1c2ccccc2CCc2ccccc21)CN(C)C (stereo unspecified) ?
95 % of control

Input COc1cc(N2C(N)=NC(N)=NC2(C)C)cc(OC)c1OC
98 % of control

Try this compound too: Cc1ncc(CO)c(C2NOCc3nccnc32)c1O (stereo unspecified)
92 % of control

What do you have for CN(CO)c1nc(N(C)CO)nc(N(C)CO)n1 ?
109 % of control

---

- System: L1210 leukemia ip in BDF1 mice, survival T/C
- assay.procedure: NCI In Vivo Anticancer Drug Screen. Data for tumor model L1210 Leukemia (intraperitoneal) in B6D2F1 (BDF1) mice
- measurement.setup: endpoint: mean survival time; dose: 200.0 mg/kg/injection; schedule: Q04DX002 (ip); vehicle: Klucel (hydroxypropylcellulose) (HPC); higher = longer survival
Toxic doses and inconclusive results are not listed.
Here, each record is paired with measured T/C data.

{"compound": "COc1ccc(C(C)(C)CC(C)(C)C)cc1", "T/C": "118 % of control"}
{"compound": "C1SCSCS1", "T/C": "96 % of control"}
{"compound": "CCCCN1C(=O)C2C3CCC(O3)C2C1=O (stereo not given)", "T/C": "103 % of control"}

Endpoint output: T/C of CC(C)(C)OC(=O)NC(Cc1ccccc1)C(=O)NN (stereo not given) . Value?
97 % of control

And CCOC(=O)CNc1ccc(F)c(F)c1 ?
90 % of control

Then this compound: COc1ccc(NC(=S)Nc2ccccc2)c(Cl)c1
97 % of control

// same read-out, input: O=C1CCC(N2C(=O)C3C4CCC(O4)C3C2=O)C(=O)N1 (stereo not given)
113 % of control

Next record, please: COC1(c2ccccc2)c2cc3ccccc3cc2C(OC)(c2ccccc2)c2cc3ccccc3cc21 (stereo not given)
109 % of control

---

- System: L1210 leukemia ip in BDF1 mice, survival T/C
- assay.procedure: NCI In Vivo Anticancer Drug Screen. Data for tumor model L1210 Leukemia (intraperitoneal) in B6D2F1 (BDF1) mice
- measurement.setup: endpoint: mean survival time; dose: 200.0 mg/kg/injection; schedule: Q01DX001 (ip); vehicle: carboxymethylcellulose (CMC); higher = longer survival
Inconclusive results and toxic doses are left out.
quantity.name: T/C

What value of T/C has been reported for the following compound? COc1cc(C(=O)c2ccccc2C(=O)O)c(OC)c2c1CCCC2
92 % of control

---

Attribute: T/C
- Test system: L1210 leukemia ip in BDF1 mice, survival T/C
- assay.procedure: NCI In Vivo Anticancer Drug Screen. Data for tumor model L1210 Leukemia (intraperitoneal) in B6D2F1 (BDF1) mice
- measurement.setup: endpoint: mean survival time; dose: 200.0 mg/kg/injection; schedule: Q01DX001 (ip); vehicle: other; higher = longer survival
Inconclusive results and toxic doses are left out.

Solved entries:
{"compound": "Oc1ccc(N=Cc2ccccc2O)cc1.[Co]", "T/C": "94 % of control"}
{"compound": "O=C1NC(=O)C(c2ccccc2)O1 (configuration not stated)", "T/C": "103 % of control"}
{"compound": "O=C1c2ccccc2C(=O)N1Cc1ccc([N+](=O)[O-])cc1", "T/C": "87 % of control"}
{"compound": "C(=N\\n1cnc2c(SCc3ccccc3)ncnc21)/c1ccccc1", "T/C": "91 % of control"}

Would you kindly share the measured T/C for Oc1[nH]c2ccccc2c1N=Nc1ccccn1 ?
101 % of control

And what about the compound CC(C)c1cc(O)ccc1O ?
94 % of control

Would you mind doing CN(C)CCC1(CCN(C)C)C(=O)CCc2ccccc21 as well?
103 % of control

---

- Tested on: L1210 leukemia ip in BDF1 mice, survival T/C
- assay.procedure: NCI In Vivo Anticancer Drug Screen. Data for tumor model L1210 Leukemia (intraperitoneal) in B6D2F1 (BDF1) mice
- measurement.setup: endpoint: mean survival time; dose: 200.0 mg/kg/injection; schedule: Q04DX003 (ip); vehicle: saline with Tween-80; higher = longer survival
Toxic doses and inconclusive results are not listed.
quantity.name: T/C

{"compound": "Cc1cc(C(C)(C)c2ccc(O)c(C)c2)ccc1O", "data.value": "102 % of control"}
{"compound": "O=C(c1ccc(F)cc1)c1ccc(Cl)cc1Cl", "data.value": "98 % of control"}
{"compound": "O=C1CCC(N2C(=O)C3C4CCC(O4)C3C2=O)C(=O)N1 (stereo not drawn)", "data.value": "100 % of control"}
{"compound": "CN(NC(=O)c1ccccc1)c1ccccc1", "data.value": "107 % of control"}
{"compound": "O=C(Nc1ccc2c(c1)Cc1cc([N+](=O)[O-])ccc1-2)C(F)(F)F", "data.value": "94 % of control"}
{"compound": "O=S(=O)(c1ccc(Br)cc1)c1ccc(Br)cc1", "data.value": "98 % of control"}

Request - read-out T/C | tested on L1210 leukemia ip in BDF1 mice, survival T/C | compound CC(=O)N1C(=O)NC(=O)C1(C)c1cccs1 (stereo not drawn)
98 % of control

Now give it for COc1ccc([N+](=O)[O-])cc1NS(=O)(=O)c1c(C)cc(C)cc1C too.
97 % of control

Same read-out for O=C(CCl)NC(=O)CCl ?
93 % of control

Here is the next compound: O=C(Nc1ccccc1C(F)(F)F)c1ccc(Cl)cc1Cl
92 % of control

Input CC(C)=C(c1ccc(Br)cc1)c1ccc(Br)cc1
97 % of control

Can you check CS(=O)(=O)C1(S(C)(=O)=O)Cc2ccccc2C1 next?
92 % of control

CCOC(CCC#N)c1ccc(C)cc1 (stereo not drawn) ?
98 % of control

---

- System: L1210 leukemia ip in BDF1 mice, survival T/C
- assay.procedure: NCI In Vivo Anticancer Drug Screen. Data for tumor model L1210 Leukemia (intraperitoneal) in B6D2F1 (BDF1) mice
- measurement.setup: endpoint: mean survival time; dose: 100.0 mg/kg/injection; schedule: Q01DX009 (ip); vehicle: Klucel (hydroxypropylcellulose) (HPC); higher = longer survival
Inconclusive results and toxic doses are left out.
Parameter T/C: see the listing below.

Solved cases below.
{"compound": "CCCCCNC(=O)CCC", "target.of.assay": "L1210 leukemia ip in BDF1 mice, survival T/C", "T/C": "108 % of control"}
{"compound": "Nc1ccccc1/C=C/c1ccncc1", "target.of.assay": "L1210 leukemia ip in BDF1 mice, survival T/C", "T/C": "92 % of control"}
{"compound": "COc1ccc(N=NN(C(C)=O)c2ccccc2)cc1", "target.of.assay": "L1210 leukemia ip in BDF1 mice, survival T/C", "T/C": "111 % of control"}
{"compound": "O=C1c2sccc2-c2cccc3cccc1c23", "target.of.assay": "L1210 leukemia ip in BDF1 mice, survival T/C", "T/C": "98 % of control"}
{"compound": "NC(C(=O)O)c1ccccc1Cl (stereo not drawn)", "target.of.assay": "L1210 leukemia ip in BDF1 mice, survival T/C", "T/C": "101 % of control"}

Can you look up the measured T/C of CC(C)CCCCCOC(N)=O for me?
96 % of control

Moving on to the next compound: C=CCc1c(C)ccc(C)c1OC
97 % of control

Another compound to look at: O=C(Nc1cccc(C(=O)O)c1)Nc1ccccc1F
107 % of control
